These entries and their values trace back to ChEMBL document CHEMBL3392978.

# Test system: MDA-MB-453
# assay-remarks: Growth inhibition of human MDA-MB-453 cells at 10 uM after 72 hrs by MTT assay
# Assay type: functional
# condition-set: MDA-MB-453, 72 h, read-out: GI
So I've got a bunch of compounds here, and I need their inhibition of growth at 10 µM values.
Your answer is read as %, so omit the unit and give the number.

Prompt line: What measured inhibition of growth at 10 µM is associated with `Cc1ccc(NC(=O)c2ccc(Cl)cc2)cc1C(=O)Nc1ccc(-c2ncc[nH]2)nc1` on MDA-MB-453?
Response line: 21.4

Prompt line: What measured inhibition of growth at 10 µM is associated with `Cc1ccc(NC(=O)c2ccc(F)cc2)cc1C(=O)Nc1ccc(-c2ncc[nH]2)nc1` on MDA-MB-453?
Response line: 22

Prompt line: What measured inhibition of growth at 10 µM is associated with `O=C(Nc1cccc(C(F)(F)F)c1)c1ccc(Cl)c(C(=O)Nc2ccc(-c3ncc[nH]3)nc2)c1` on MDA-MB-453?
Response line: 19.7

Prompt line: What measured inhibition of growth at 10 µM is associated with `Cc1ccc(NC(=O)c2ccc(Br)cc2)cc1C(=O)Nc1ccc(-c2ncc[nH]2)nc1` on MDA-MB-453?
Response line: 18.9

Prompt line: What measured inhibition of growth at 10 µM is associated with `COc1ccc(C(=O)Nc2ccc(C)c(C(=O)Nc3ccc(-c4ncc[nH]4)nc3)c2)cc1` on MDA-MB-453?
Response line: 23.5
